Cited source for all entries: patent US10150743B2

- Experimental System: human TLR7 (Homo sapiens (Human), UniProt Q9NYK1)
- Sequence (Q9NYK1 27-1049): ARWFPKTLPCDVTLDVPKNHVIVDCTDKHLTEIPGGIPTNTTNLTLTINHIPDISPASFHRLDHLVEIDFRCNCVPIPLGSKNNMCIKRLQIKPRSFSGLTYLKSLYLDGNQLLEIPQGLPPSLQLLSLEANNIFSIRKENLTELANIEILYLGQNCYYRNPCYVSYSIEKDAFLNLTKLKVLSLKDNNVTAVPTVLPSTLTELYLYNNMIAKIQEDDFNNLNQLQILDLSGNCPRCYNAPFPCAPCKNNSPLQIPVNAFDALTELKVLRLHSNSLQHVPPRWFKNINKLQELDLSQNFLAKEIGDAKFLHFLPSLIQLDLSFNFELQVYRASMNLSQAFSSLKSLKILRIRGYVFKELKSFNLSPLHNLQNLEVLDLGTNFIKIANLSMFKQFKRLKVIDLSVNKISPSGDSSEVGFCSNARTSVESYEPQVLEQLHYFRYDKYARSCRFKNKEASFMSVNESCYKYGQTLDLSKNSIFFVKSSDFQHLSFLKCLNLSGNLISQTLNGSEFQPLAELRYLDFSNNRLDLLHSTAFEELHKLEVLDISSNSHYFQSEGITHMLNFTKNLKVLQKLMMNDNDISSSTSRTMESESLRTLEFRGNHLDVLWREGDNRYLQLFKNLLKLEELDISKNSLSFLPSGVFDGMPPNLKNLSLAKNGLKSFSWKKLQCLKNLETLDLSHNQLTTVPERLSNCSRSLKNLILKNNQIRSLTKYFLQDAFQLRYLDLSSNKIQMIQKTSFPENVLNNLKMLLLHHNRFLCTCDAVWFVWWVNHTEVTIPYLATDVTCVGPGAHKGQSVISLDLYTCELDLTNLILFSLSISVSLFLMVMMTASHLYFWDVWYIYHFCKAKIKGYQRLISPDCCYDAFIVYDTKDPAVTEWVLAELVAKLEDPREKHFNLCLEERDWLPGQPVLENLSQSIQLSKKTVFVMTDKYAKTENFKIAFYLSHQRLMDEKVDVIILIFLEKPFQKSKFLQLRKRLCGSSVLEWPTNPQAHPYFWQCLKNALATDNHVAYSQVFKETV
- Protocol Text: Human TLR7 assay (SEAP reporter in HEK293)
- Assay type: cell-based
- Condition Label: SEAP induction, overnight incubation at 37° C., 0.1% DMSO; read-out: TLR7 (pEC50) (converted)
Here, each record is paired with measured log10(EC50) data.
Use the decimal logarithm of EC50 (nM).

Solved cases (5 shown):
* CCC[C@@H](CCO)Nc1nc(N)nc(C)c1Cc1ccc(OCCCN(CC)CC(=O)O)cc1OC | 2.30
* CCC[C@@H](CCO)Nc1nc(N)nc(C)c1Cc1ccc(CN(CC(=O)O)CC(F)(F)F)cc1OC | 2.00
* CCC[C@@H](CCO)Nc1nc(N)nc(C)c1Cc1ccc(CN(CCC(=O)O)CC(F)F)cc1OC | 2.40
* CCC[C@@H](CCO)Nc1nc(N)nc(C)c1Cc1ccc(OCCCN(CC)CCC(=O)O)cc1OC | 2.40
* CCC[C@@H](CCO)Nc1nc(N)nc(C)c1Cc1ccc(OCCCN2CCC[C@H]2C(=O)O)cc1OC | 2.30

Kindly state the measured log10(EC50) obtained for `CCCCNc1nc(N)nc(C)c1Cc1ccc(CN(CC)CC(=O)O)cc1OC` with human TLR7 (Homo sapiens (Human), UniProt Q9NYK1).
2.90

Recall the recorded log10(EC50) for `CCC[C@@H](CCO)Nc1nc(N)nc(C)c1Cc1ccc(OCCCN2CCC[C@@H]2C(=O)O)cc1OC` with human TLR7 (Homo sapiens (Human), UniProt Q9NYK1) and state it.
2.10

// lookup log10(EC50) | system=human TLR7 (Homo sapiens (Human), UniProt Q9NYK1) | key= `CCC[C@@H](CCO)Nc1nc(N)nc(C)c1Cc1ccc(CN(CC(=O)O)C(C)=O)cc1OC`
2.40

Param readout= log10(EC50); system= human TLR7 (Homo sapiens (Human), UniProt Q9NYK1); entry= `CCC[C@@H](CCO)Nc1nc(N)nc(C)c1Cc1ccc(Cn2cncc2C(=O)O)cc1OC` ; returns value.
3.30

Short answer please: log10(EC50), human TLR7 (Homo sapiens (Human), UniProt Q9NYK1), entry `CCC[C@@H](CCO)Nc1nc(N)nc(C)c1Cc1ccc(CN2CCC[C@@H]2C(=O)O)cc1OC`
2.30

# value lookup — system human TLR7 (Homo sapiens (Human), UniProt Q9NYK1), readout log10(EC50), item `CCC[C@@H](CCO)Nc1nc(N)nc(C)c1Cc1ccc(OCCCN(CC(=O)O)CC(F)F)cc1OC`
2.00

Checklist item: log10(EC50) tested on human TLR7 (Homo sapiens (Human), UniProt Q9NYK1), entry `CCC[C@@H](CCO)Nc1nc(N)nc(C)c1Cc1ccc(CN(CC(=O)O)CC(F)F)cc1OC` , value?
1.90

Param readout = log10(EC50); param system = human TLR7 (Homo sapiens (Human), UniProt Q9NYK1); param query = `CCC[C@@H](CCO)Nc1nc(N)nc(C)c1Cc1ccc(CN(CC)CC(=O)O)cc1OC` ; response: value
2.20

# get_value(readout= log10(EC50), system= human TLR7 (Homo sapiens (Human), UniProt Q9NYK1)) for `CCC[C@@H](CCO)Nc1nc(N)nc(C)c1Cc1ccc(CN(CC)CCC(=O)O)cc1OC`
1.70
